# Tested on: P388 leukemia ip, CD2F1 mice, survival T/C
# testSummary: NCI In Vivo Anticancer Drug Screen. Data for tumor model P388 Leukemia (intraperitoneal) in CD2F1 (CDF1) mice
# settings: endpoint: median survival time; dose: 100.0 mg/kg/injection; schedule: Q01DX009 (ip); vehicle: other
Inconclusive results and toxic doses are left out. How the source made its calls: active means survival T/C of 150% or more; inactive means T/C below 125% in these data. Peptide text beside a SMILES is read from it. * marks the point of attachment. Boc = CC(C)(C)OC(=O)*; NHNH2 = NN*
Outcome field: choose from T for active, F for inactive

{"columns": ["compound", "category"],
 "data": [
  ["CCNCc1c2c(O)c3c(O)c(C)c4c(c3c1O)C(=O)C(C)(O/C=C/C(OC)C(C)C(OC(C)=O)C(C)C(O)C(C)C(O)C(C)/C=C/C=C(/C)C(=O)N2)O4 (stereo not drawn)", "F"],
  ["CC(C)(C)C1=CC2(c3ccccn3)C(Cl)C(=O)N2NC(c2ccccn2)=N1 (stereo not drawn)", "F"],
  ["c1ccc2ccccc2c1", "F"],
  ["CC(C)(C)OC(=O)NC(Cc1c[nH]c2ccccc12)C(=O)NC(CS)C(=O)NN (stereo not drawn) (Boc-Trp-Cys-NHNH2; configuration not given here)", "F"],
  ["Cc1cc(C)c(S(=O)(=O)N/N=C/C(=O)O)c(C)c1", "T"]
]}

Request: In this assay, the call recorded for "CCOC(=O)/C=C/c1nc(OCC)c(C)c(C(=O)OCC)n1" was what?
Result: F

Request: In this assay, the call recorded for "O=C(Oc1ccccc1)N1CCOCC1" was what?
Result: F

Request: In this assay, the call recorded for O=C(c1ccc([N+](=O)[O-])cc1)C(Br)C(Br)c1ccncc1 (stereo not drawn) was what?
Result: F

* * *

Measured T/C of individual entries
# Tested on: P388 leukemia ip, CD2F1 mice, survival T/C
# testSummary: NCI In Vivo Anticancer Drug Screen. Data for tumor model P388 Leukemia (intraperitoneal) in CD2F1 (CDF1) mice
# settings: endpoint: median survival time; dose: 200.0 mg/kg/injection; schedule: Q04DX002 (ip); vehicle: saline with Tween-80; higher = longer survival
Toxic doses and inconclusive results are not listed.

{"columns": ["compound", "T/C"],
 "data": [
  ["O=C1OCc2cc3c(cc2-c2ccccc21)OCO3", "101 % of control"],
  ["CC(C)(C)c1cc(/C2=c3\\cc/c([n-]3)=C(\\c3cc(C(C)(C)C)c(O)c(C(C)(C)C)c3)c3ccc([n-]3)/C(c3cc(C(C)(C)C)c(O)c(C(C)(C)C)c3)=c3/cc/c([n-]3)=C(\\c3cc(C(C)(C)C)c(O)c(C(C)(C)C)c3)c3ccc2[n-]3)cc(C(C)(C)C)c1O.[Zn]", "88 % of control"],
  ["CCOC(=O)C1CSC2(CCCC2)N1 (centres undefined)", "109 % of control"]
]}

Request: Report T/C, nothing else, for this compound: O=C(CC(=NCC(O)CN=C(CC(=O)c1ccccc1)c1ccccc1)c1ccccc1)c1ccccc1 (centres undefined)
Result: 98 % of control

* * *

Measured T/C of individual entries
# Test system: P388 leukemia ip, CD2F1 mice, survival T/C
# testSummary: NCI In Vivo Anticancer Drug Screen. Data for tumor model P388 Leukemia (intraperitoneal) in CD2F1 (CDF1) mice
# settings: endpoint: median survival time; dose: 200.0 mg/kg/injection; schedule: Q01DX005 (ip); vehicle: saline with Tween-80; higher = longer survival
Inconclusive results and toxic doses are left out.

Answered cases to consult:
{"columns": ["molecule", "T/C"],
 "data": [
  ["COc1ccc2[nH]cc(C#N)c(=O)c2c1", "92 % of control"],
  ["O=C1NC2(CCCCC2)C(=O)N1CO", "116 % of control"],
  ["C1CCc2nc3c(nc2C1)CCCC3", "92 % of control"],
  ["COc1ccc2[nH]c(=O)c(C(C)=O)c(O)c2c1", "101 % of control"],
  ["CCOC(=O)c1cn(C)c(=O)c(Br)c1C#N", "93 % of control"],
  ["Cc1cccc(C(C)(C)C)c1NC(=O)CCc1nnc(N)n1N", "101 % of control"],
  ["CCO/C=N/NC(=O)c1n[nH]c2ccccc12", "106 % of control"],
  ["CCOC(=O)C1CCC(=O)C(CC)=C1C (configuration not stated)", "107 % of control"]
]}

With those in mind, consider the next molecule.
Request: Report T/C, nothing else, for this molecule: CC1CC2(CC(COc3ccccc3C(N)=O)OC2=O)C(=O)O1 (configuration not stated)
Result: 97 % of control

* * *

Measured T/C of individual entries
# System: P388 leukemia ip, CD2F1 mice, survival T/C
# testSummary: NCI In Vivo Anticancer Drug Screen. Data for tumor model P388 Leukemia (intraperitoneal) in CD2F1 (CDF1) mice
# settings: endpoint: median survival time; dose: 120.0 mg/kg/injection; schedule: Q01DX005 (ip); vehicle: Klucel (hydroxypropylcellulose) (HPC); higher = longer survival
# Method: The antitumor activity of compounds was measured in mice bearing transplantable tumors. Survival or tumor size were measured and the results are expressed as the measurement made in the treated group (T) divided by the measurement made in the vehicle treated control group (C). The tumor model used in this assay is P388 Leukemia (intraperitoneal) in CD2F1 (CDF1) mice
Toxic doses and inconclusive results are not listed.

Answered cases to consult:
{"columns": ["molecule", "T/C"],
 "data": [
  ["ONC(=Nc1cccc2ccccc12)C(=Nc1cccc2ccccc12)NO", "102 % of control"],
  ["COc1ccc2ccc3ccc(OC)c(OC(C)=O)c3c2c1", "98 % of control"],
  ["O=C1C2=C(Nc3ccccc3N2)OC1c1ccccc1Cl (centres undefined)", "97 % of control"],
  ["CC1=CC(=C2C(=O)c3ccccc3C2=O)C=C(C)O1", "90 % of control"],
  ["O=C(Nc1c(Cl)cccc1Cl)Oc1c(Br)cc(Br)cc1Br", "101 % of control"],
  ["Cc1c([O-])[n+]2cccc3ccn(c1=O)c32", "100 % of control"],
  ["CC(C)CC1N=C(NN=C(CCl)CCl)SP1(=O)NCCCCCCNP1(=O)SC(NN=C(CCl)CCl)=NC1CC(C)C (centres undefined)", "103 % of control"],
  ["CC(C)(C)OC(=O)CS(=O)Nc1ccccc1O (centres undefined)", "108 % of control"]
]}

Request: Report T/C, nothing else, for this molecule: "O=c1oc2nc(-c3ccccc3)[nH]c(=O)c2c(O)c1-c1ccccc1"
Result: 96 % of control

Request: Report T/C, nothing else, for this molecule: "COC(=O)c1nc(N)nc(C(=O)OC)c1C(=O)c1ccc2ccccc2c1"
Result: 101 % of control

Request: Report T/C, nothing else, for this molecule: "C1=CC(=CN2CCc3ccccc3C2)C=C1"
Result: 102 % of control

Request: Report T/C, nothing else, for this molecule: "Cc1ccc2c(c1)Pc1cc(C)ccc1S2"
Result: 101 % of control

Request: Report T/C, nothing else, for this molecule: "S=C1NCCOc2ccccc21"
Result: 100 % of control

Request: Report T/C, nothing else, for this molecule: "COc1cccc2c1S(=O)(=O)C(c1ccccc1)=CC2=O"
Result: 105 % of control

* * *

Measured T/C of individual entries
# Tested on: P388 leukemia ip, CD2F1 mice, survival T/C
# testSummary: NCI In Vivo Anticancer Drug Screen. Data for tumor model P388 Leukemia (intraperitoneal) in CD2F1 (CDF1) mice
# settings: endpoint: median survival time; dose: 200.0 mg/kg/injection; schedule: Q01DX009 (ip); vehicle: other; higher = longer survival
Inconclusive results and toxic doses are left out. Peptide text beside a SMILES is read from it. * marks the point of attachment. Boc = CC(C)(C)OC(=O)*; NHNH2 = NN*

Answered cases to consult:
{"columns": ["compound", "readoutType", "reading"],
 "data": [
  ["COc1ccc(-c2c(C)c(C)nc(Cl)c2C#N)c(OCc2ccccc2)c1OC", "T/C", "102 % of control"],
  ["O=C(Oc1ccccc1)N1CCOCC1", "T/C", "112 % of control"],
  ["Cc1ccc(/C=C/c2ccc3ccccc3c2)cc1", "T/C", "120 % of control"],
  ["CC(C)(C)OC(=O)NC(Cc1c[nH]c2ccccc12)C(=O)NC(CS)C(=O)NN (stereo not drawn) (Boc-Trp-Cys-NHNH2; configuration not given here)", "T/C", "94 % of control"],
  ["COc1cc2ccc(C(C)=O)c(O)c2cc1OC", "T/C", "97 % of control"]
]}

Request: Report T/C, nothing else, for this compound: "CCOC(=O)/C=C/c1nc(OCC)c(C)c(C(=O)OCC)n1"
Result: 90 % of control

Request: Report T/C, nothing else, for this compound: O=C(Nc1cccc2ccccc12)OC1CC2CCC1C2Cl (centres undefined)
Result: 88 % of control

Request: Report T/C, nothing else, for this compound: COc1ccc2c(c1)C1(C)c3cc(OC)ccc3OC1(C)O2 (centres undefined)
Result: 103 % of control

Request: Report T/C, nothing else, for this compound: "O=c1c2cc3c(cc2c2cccc4c2n1CC4)OCO3"
Result: 89 % of control
